- test protocol: Serum pharmacokinetics of AEE788 and its metabolite AQM674
- condition details: human, serum, oral, 600 mg/day
quantity measured: Tmax (h)
// return numeric value only (unit: h, not printed)

For reference, reported Tmax for `CCN1CCN(Cc2ccc(-c3cc4c(N[C@H](C)c5ccccc5)ncnc4[nH]3)cc2)CC1` stands at 3.7

====

- test protocol: Serum pharmacokinetics of AEE788 and its metabolite AQM674
- condition details: human, serum, oral, 800 mg/day
quantity measured: Cmax (ng/mL)
// return numeric value only (unit: ng/mL, not printed)

For reference, reported Cmax for `CCN1CCN(Cc2ccc(-c3cc4c(N[C@H](C)c5ccccc5)ncnc4[nH]3)cc2)CC1` stands at 95.2
